Hello, the source for this data is patent US20250034269A1, in case you need it.

I'd appreciate it if you could supply rel. fit top (OD) values for the items below.
biological target: T1, dimeric human LTBR-Fc biotinylated (P1AE2401) (human, UniProt P36941 31-227, biotinylated in vitro); experiment: competition ELISA vs human LIGHT
T1 construct: bought from R&D Systems (7538-LR); also called human LTBR ECD; not shown: human IgG1 Fc-Fragment
Dear colleague, please return just the value in OD, with no unit written.

GET /values?readout=rel. fit top (OD)&item= P1AE9457 (antibody, human IgG1, kappa, L234A L235A, V domains shown, human IgG1 PG LALA; from transgenic rabbit immunization; also called LTBR (9457)) VH: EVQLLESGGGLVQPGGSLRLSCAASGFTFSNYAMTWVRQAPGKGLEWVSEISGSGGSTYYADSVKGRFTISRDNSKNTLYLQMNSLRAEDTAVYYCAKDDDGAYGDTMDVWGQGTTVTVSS VL: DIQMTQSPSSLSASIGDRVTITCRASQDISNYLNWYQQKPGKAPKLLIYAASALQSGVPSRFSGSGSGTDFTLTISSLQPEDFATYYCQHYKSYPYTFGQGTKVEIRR 1.3

GET /values?readout=rel. fit top (OD)&item= P1AE9452 (antibody, human IgG1, kappa, L234A L235A, V domains shown, human IgG1 PG LALA; from transgenic rabbit immunization; also called LTBR (9452)) VH: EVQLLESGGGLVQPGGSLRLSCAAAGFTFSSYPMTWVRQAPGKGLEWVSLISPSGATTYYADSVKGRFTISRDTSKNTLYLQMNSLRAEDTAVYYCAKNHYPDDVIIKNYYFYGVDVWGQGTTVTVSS VL: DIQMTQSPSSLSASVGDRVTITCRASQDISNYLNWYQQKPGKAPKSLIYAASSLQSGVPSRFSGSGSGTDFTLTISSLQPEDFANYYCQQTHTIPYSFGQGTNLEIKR 1.2

GET /values?readout=rel. fit top (OD)&item= P1AF0080 (antibody, human IgG1, kappa, L234A L235A, V domains shown, human IgG1 PG LALA; from transgenic rabbit immunization; also called LTBR (0080)) VH: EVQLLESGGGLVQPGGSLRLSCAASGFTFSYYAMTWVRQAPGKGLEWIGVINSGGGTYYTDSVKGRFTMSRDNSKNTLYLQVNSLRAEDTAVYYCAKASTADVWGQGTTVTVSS VL: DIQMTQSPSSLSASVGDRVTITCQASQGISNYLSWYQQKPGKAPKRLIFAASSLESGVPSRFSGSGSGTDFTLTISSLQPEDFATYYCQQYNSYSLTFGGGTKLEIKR 1.2
